Reported pKi values for the following binders.
Molecular target: T1, rat hypothalamic Y5 receptor (rat)
T1 chain: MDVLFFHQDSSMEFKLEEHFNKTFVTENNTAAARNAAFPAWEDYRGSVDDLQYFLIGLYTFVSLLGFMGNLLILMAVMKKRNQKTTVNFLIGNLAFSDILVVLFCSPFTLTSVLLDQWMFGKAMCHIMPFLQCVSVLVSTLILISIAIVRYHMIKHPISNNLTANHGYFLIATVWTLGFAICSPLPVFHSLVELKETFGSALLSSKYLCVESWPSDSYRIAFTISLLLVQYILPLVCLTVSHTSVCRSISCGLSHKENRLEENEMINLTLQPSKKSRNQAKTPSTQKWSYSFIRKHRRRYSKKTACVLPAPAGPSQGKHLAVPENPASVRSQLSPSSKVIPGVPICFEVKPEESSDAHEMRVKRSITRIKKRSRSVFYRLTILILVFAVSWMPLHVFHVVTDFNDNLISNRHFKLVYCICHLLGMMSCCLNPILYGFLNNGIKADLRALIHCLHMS
Assay: 125I-PYY displacement, COS-7 membranes
pKi: −log10 of the molar value. Ends that are not written are not given here.
PROPERTY_LABEL: pKi

binder="ARYYSALRHYINLITRQRY (ends and bridges not checked) [porcine NPY18-36]" value_comparator=< value_observed=6.00
binder="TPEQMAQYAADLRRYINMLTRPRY [human PP13-36]" value_comparator== value_observed=7.08
binder="PLEPVY [human PP31-36]" value_comparator=< value_observed=6.00
binder="SALRHYINLITRQRY (ends and bridges not checked) [porcine NPY22-36]" value_comparator=< value_observed=6.00
binder="FLRF-NH2 [FLRF-amide]" value_comparator== value_observed=5.26
binder="DLARYYSALRHYINLITRQRY (ends and bridges not checked) [porcine NPY16-36]" value_comparator== value_observed=6.59
